Molecular target: angiotensin II type 1 receptor (Oryctolagus cuniculus, UniProt P34976)
Construct: By using a specimen of isolated rabbit blood vessels; from tissue; host or cells: rabbit thoracic aorta ring (New Zealand White, male)
Sequence (P34976 whole entry): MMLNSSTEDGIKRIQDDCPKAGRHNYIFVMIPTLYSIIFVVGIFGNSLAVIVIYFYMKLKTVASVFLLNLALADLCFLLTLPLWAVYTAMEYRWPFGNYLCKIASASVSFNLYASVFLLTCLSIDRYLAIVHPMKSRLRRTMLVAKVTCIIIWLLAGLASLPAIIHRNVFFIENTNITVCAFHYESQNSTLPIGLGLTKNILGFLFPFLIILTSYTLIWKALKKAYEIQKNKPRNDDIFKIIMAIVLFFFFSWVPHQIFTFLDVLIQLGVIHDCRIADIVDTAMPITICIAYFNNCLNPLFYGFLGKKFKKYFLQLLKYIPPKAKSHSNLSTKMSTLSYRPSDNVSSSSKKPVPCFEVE
Test: Angiotensin II antagonistic activity in isolated rabbit blood vessels (angiotensin II-induced contraction of thoracic aorta ring)
Conditions: 0.1 μM compound, angiotensin II (10 nM)-induced contraction, read-out: Angiotensin II activity inhibition rate (%) at 0.1 μM concentration
Please use Condition met whenever inhibition at 0.1 µM is not below 90%, and Condition not met whenever it is.

Some entries whose results are on file:
| compound | class-assignment |
| --- | --- |
| CCCCc1nc(C)n(-c2ncc(OCC)cn2)c(=O)c1Cc1ccc(-c2ccccc2S(=O)(=O)NC(=O)C2CCCC2)cc1 [Example 9] | Condition met |
| CCCCc1nc(C)n(-c2ncc(OC)cn2)c(=O)c1Cc1ccc(-c2ccccc2S(=O)(=O)NC(=O)C2CCCC2)cc1 [Example 4] | Condition met |
| CCCCc1nc(C)n(-c2ncc(OCC)cn2)c(=O)c1Cc1ccc(-c2ccccc2S(=O)(=O)NC(=O)C2CC2)cc1 [Example 8] | Condition not met |
| CCCCc1nc(C)n(-c2ncc(OC)cn2)c(=O)c1Cc1ccc(-c2ccccc2S(=O)(=O)NC(=O)CC)cc1 [Example 1] | Condition not met |

Note: attention shifts to another entry.
Lookup: Decide: is the reported value of inhibition at 0.1 µM for CCCCc1nc(C)n(-c2ncc(OCC)cn2)c(=O)c1Cc1ccc(-c2ccccc2S(=O)(=O)NC(=O)C2CCCCC2)cc1 [Example 10] equal to or greater than 90%?
Found: Condition not met

* * *

Molecular target: human PPARγ2 (Homo sapiens, UniProt P37231)
Construct: the amino acids 182 to 505 of human PPARγ2
Sequence (P37231 182-505): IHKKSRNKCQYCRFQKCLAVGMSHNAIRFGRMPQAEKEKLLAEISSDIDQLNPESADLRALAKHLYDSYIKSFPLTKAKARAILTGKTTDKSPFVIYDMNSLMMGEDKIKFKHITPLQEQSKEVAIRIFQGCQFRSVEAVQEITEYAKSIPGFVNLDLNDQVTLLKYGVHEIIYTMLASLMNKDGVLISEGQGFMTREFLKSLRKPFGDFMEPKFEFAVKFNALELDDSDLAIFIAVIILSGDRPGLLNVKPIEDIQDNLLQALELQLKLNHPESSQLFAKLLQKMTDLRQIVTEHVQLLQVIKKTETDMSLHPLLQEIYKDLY
Test: PPARγ activation activity, Gal4-PPARγ2 LBD luciferase transfection assay in COST cells
Settings: Gal4-human PPARγ2 LBD luciferase reporter, 16 hours, rosiglitazone = 100%
The following molecules are shown together with reported EC50 values.
Express the result in nM but write the number alone.

Recorded EC50 (molecule CCCCc1nc(C2CC2)n(-c2ncc(OC)cn2)c(=O)c1Cc1ccc(-c2ccccc2S(=O)(=O)NC(=O)C2CC2)cc1 ): 1050

Recorded EC50 (molecule CCCCc1nc(C)n(-c2ncc(OCC)cn2)c(=O)c1Cc1ccc(-c2ccccc2S(=O)(=O)NC(=O)C2CC2)cc1 ): 3690

Recorded EC50 (molecule CCCCc1nc(C2CCCC2)n(-c2ncc(OCC)cn2)c(=O)c1Cc1ccc(-c2ccccc2S(=O)(=O)NC(=O)C2CC2)cc1 ): 710

Recorded EC50 (molecule CCCCc1nc(C)n(-c2ncc(OCC)cn2)c(=O)c1Cc1ccc(-c2ccccc2S(=O)(=O)NC(=O)C2CCCC2)cc1 ): 3520

Recorded EC50 (molecule CCCCc1nc(C)n(-c2ncc(OC(F)F)cn2)c(=O)c1Cc1ccc(-c2ccccc2S(=O)(=O)NC(=O)C2CC2)cc1 ): 3370

Recorded EC50 (molecule CCCCCC(=O)NS(=O)(=O)c1ccccc1-c1ccc(Cc2c(CCCC)nc(C)n(-c3ncc(OCC)cn3)c2=O)cc1 ): 2210

Recorded EC50 (molecule CCCCc1nc(C(C)C)n(-c2ncc(OCC)cn2)c(=O)c1Cc1ccc(-c2ccccc2S(=O)(=O)NC(=O)C2CC2)cc1 ): 1360

* * *

Target: angiotensin II type 1 receptor (Oryctolagus cuniculus)
Construct: By using a specimen of isolated rabbit blood vessels; from tissue; host or cells: rabbit thoracic aorta ring (New Zealand White, male)
Test: Angiotensin II antagonistic activity in isolated rabbit blood vessels (angiotensin II-induced contraction of thoracic aorta ring)
Conditions: 0.1 μM compound, angiotensin II (10 nM)-induced contraction, read-out: Angiotensin II activity inhibition rate (%) at 0.1 μM concentration
reported-metric: inhibition at 0.1 µM (%)
Express the result in % but write the number alone.

Previously resolved entries follow.
| smiles-str | unit-tag | endpoint-value |
| --- | --- | --- |
| CCCCCC(=O)NS(=O)(=O)c1ccccc1-c1ccc(Cc2c(CCCC)nc(C)n(-c3ncc(OCC)cn3)c2=O)cc1 | % | 89.3 |
| CCCCc1nc(C)n(-c2ncc(OC)cn2)c(=O)c1Cc1ccc(-c2ccccc2S(=O)(=O)NC(=O)C2CCCCC2)cc1 | % | 92.4 |
| CCCCCC(=O)NS(=O)(=O)c1ccccc1-c1ccc(Cc2c(CCCC)nc(C)n(-c3ncc(OC)cn3)c2=O)cc1 | % | 91.9 |

Now consider the entry below.
Recorded inhibition at 0.1 µM (compound CCCCc1nc(C)n(-c2ncc(OC)cn2)c(=O)c1Cc1ccc(-c2ccccc2S(=O)(=O)NC(=O)C2CC2)cc1 ): 90
